Measured values drawn from PubChem BioAssay for this set.

# methodDescription: blockers of RIG-like receptor reporter activation – cell-based, Sendai virus stimulus, luciferase, 10K MLSCN set, TLR/RLR signaling modifier project, primary screen (AID 602276);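 also: firefly luciferase from ISG56 promoter only with Renilla not read in this screen; 0% = Sendai virus plus DMSO and 100% = medium plus DMSO without virus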
# experimentalSetup: HEK293 RL24 IRF3 luciferase reporter, at 10 µM, active compounds read high
testReadout: inhibition (%)
The figure you give is taken to be in %; do not add the unit.

Query block: Consider the molecule CCCCn1cnc2c1c(=O)n(C)c(=O)n2C . State its measured inhibition.
Result block: -11.6

Query block: Consider the molecule C/C(=C\c1ccco1)C1C(C#N)=C(N)OC2=C1C(=O)CC(C)(C)C2 (stereo not given) . State its measured inhibition.
Result block: 15.4

Query block: Consider the molecule CC1CN(C(=O)CSc2nnc(-c3ccncc3)n2-c2ccccc2)CC(C)O1 (stereo not given) . State its measured inhibition.
Result block: 20.7

Query block: Consider the molecule Cc1cccc(NC(=O)c2cc(NC(=O)c3ccco3)ccc2N2CCCCC2)c1 . State its measured inhibition.
Result block: 8.72

Query block: Consider the molecule Cc1cc(=O)oc2cc(OCC#N)ccc12 . State its measured inhibition.
Result block: 8.92

----------
# target: Voltage-gated potassium channel subunit beta-2 (Rattus norvegicus)
# methodDescription: inhibitors of rat Kvbeta2 reductase activity – biochemical, NADPH fluorescence, primary screen (AID 622);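 also: slope of raw intensity against log time taken from 70 to 1610 s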
# experimentalSetup: recombinant KvBeta, 4-cyanobenzaldehyde reduction, at 10 µM, active compounds read high
testReadout: fluorescence slope
Form rule: numeric answer, no unit written next to it.

Query block: State recorded fluorescence slope with Voltage-gated potassium channel subunit beta-2 (Rattus norvegicus), entry CC1(C)C(=O)Nc2ccccc2N1C(=O)COC(=O)Cn1cnc2ccccc2c1=O , no comment.
Result block: -0.364

Query block: State recorded fluorescence slope with Voltage-gated potassium channel subunit beta-2 (Rattus norvegicus), entry CCOC(=O)CN1CC23C=CC(O2)C(C(=O)Nc2ccc(C(C)=O)cc2)C3C1=O (stereo not drawn) , no comment.
Result block: -0.574

Query block: State recorded fluorescence slope with Voltage-gated potassium channel subunit beta-2 (Rattus norvegicus), entry Cc1cc(=O)n2nc(N3CCCC(C(=O)N4CCN(C)CC4)C3)sc2n1 (stereo not drawn) , no comment.
Result block: -0.313

----------
# methodDescription: blockers of RIG-like receptor reporter activation – cell-based, Sendai virus stimulus, luciferase, 10K MLSCN set, TLR/RLR signaling modifier project, primary screen (AID 602276);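 also: firefly luciferase from ISG56 promoter only with Renilla not read in this screen; 0% = Sendai virus plus DMSO and 100% = medium plus DMSO without virus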
# experimentalSetup: HEK293 RL24 IRF3 luciferase reporter, at 10 µM, active compounds read high
The source made the active and inactive calls.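 How the source made its calls: active means inhibition at or above 50% at 10 µM; inactive means inhibition below 50%.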
For each of the compounds below, state its inhibition.

Query block: Consider the compound Cc1nn(C)c(C)c1CNC(=O)c1cc2n(n1)C(C(F)(F)F)CC(c1cccs1)N2 (configuration not stated) . State its measured inhibition.
Result block: -2.09% (inactive)

Query block: Consider the compound CCN=C1SC(CC(=O)Nc2ccccc2OCC)C(=O)N1CC (configuration not stated) . State its measured inhibition.
Result block: 12.4% (inactive)

Query block: Consider the compound CCN(CC)CCNC(=O)c1ccc(N2CCCCC2)c(NS(=O)(=O)c2ccc(C)cc2)c1 . State its measured inhibition.
Result block: 13.5% (inactive)

Query block: Consider the compound CCc1nnc(NC(=O)CSc2nnc(CSc3nc(C)cc(C)n3)n2CC)s1 . State its measured inhibition.
Result block: -5.81% (inactive)

Query block: Consider the compound S=C(c1ccc(-c2cc(Cl)ccc2Cl)o1)N1CCOCC1 . State its measured inhibition.
Result block: 21.6% (inactive)

Query block: Consider the compound C/C(N)=C(/C#N)C(=O)CSc1nnc(Nc2cccc(C)c2)s1 . State its measured inhibition.
Result block: -7.88% (inactive)

Query block: Consider the compound C=CCOC(=O)CCC(=O)Nc1cc(OC)nc(OC)n1 . State its measured inhibition.
Result block: 12.4% (inactive)

----------
# target: Alpha-2C adrenergic receptor (Homo sapiens) (UniProt P18825)
# Sequence (P18825 whole entry, looked up): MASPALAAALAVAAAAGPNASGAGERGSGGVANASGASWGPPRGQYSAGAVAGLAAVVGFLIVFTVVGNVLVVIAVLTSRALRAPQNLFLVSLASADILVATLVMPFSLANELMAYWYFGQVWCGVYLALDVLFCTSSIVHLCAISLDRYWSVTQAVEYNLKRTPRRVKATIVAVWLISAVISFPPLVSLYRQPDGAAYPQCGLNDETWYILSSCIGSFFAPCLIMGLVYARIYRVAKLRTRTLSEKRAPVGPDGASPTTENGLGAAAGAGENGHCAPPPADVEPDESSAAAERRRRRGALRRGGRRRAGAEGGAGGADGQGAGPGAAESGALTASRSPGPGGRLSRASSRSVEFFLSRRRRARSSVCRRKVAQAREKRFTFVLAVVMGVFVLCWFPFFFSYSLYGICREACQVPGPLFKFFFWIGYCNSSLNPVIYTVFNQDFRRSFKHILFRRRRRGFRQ
# methodDescription: compounds altering alpha2C-coupled GIRK flux – cell-based, HEK293 alpha2C/GIRK1/2, thallium flux, primary screen (AID 624);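 also: slope of fluorescence ratio to pre-addition baseline per second over 15 to 24 s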
# experimentalSetup: thallium flux BTC fluorescence, at 10 µM, actives lie on both sides
testReadout: slope
Form rule: numeric answer, no unit written next to it.

Query block: Consider the compound CC1(C)CC(=O)C2=C(C1)NC(=O)CC2C(=O)NCc1ccc(F)cc1 (stereo not drawn) . State its measured slope.
Result block: 0.00523

Query block: Consider the compound c1ccc(OCc2nc3ccccc3[nH]2)cc1 . State its measured slope.
Result block: 0.00568

Query block: Consider the compound COc1cc(C(c2sc3nc(C)nn3c2O)N2CC(C)CC(C)C2)cc(OC)c1OC (stereo not drawn) . State its measured slope.
Result block: 0.00579

Query block: Consider the compound CCOC(=O)C1=C(C)NC(C)=C(C(=O)OCC)C1c1cc(N)ccc1OC(F)F . State its measured slope.
Result block: 0.00592

Query block: Consider the compound COc1ccc(C2CC(c3cccc(C)c3)n3ncnc3N2)cc1 (stereo not drawn) . State its measured slope.
Result block: 0.00625

Query block: Consider the compound COc1ccc(C(c2nnnn2C2CCCC2)N2CCC(C)CC2)c(OC)c1 (stereo not drawn) . State its measured slope.
Result block: 0.005

Query block: Consider the compound O=C(O)C1CCCN1C(=O)c1cccs1 (stereo not drawn) . State its measured slope.
Result block: 0.00489

Query block: Consider the compound COc1ccc(N2CCN(Cc3cc(=O)oc4cc(C)c(Cl)c(C)c34)CC2)cc1 . State its measured slope.
Result block: 0.00505

Query block: Consider the compound CCCC(=O)OCCn1c(Br)nc2c1c(=O)[nH]c(=O)n2C . State its measured slope.
Result block: 0.00531

Query block: Consider the compound CN1C(=O)C(CC(=O)N2CCN(C(c3ccccc3)c3ccccc3)CC2)N(C)C1=O (stereo not drawn) . State its measured slope.
Result block: 0.00745

Query block: Consider the compound CCOc1cc(-c2nc(-c3ccccc3OC)no2)cc(OCC)c1OCC . State its measured slope.
Result block: 0.00447

Query block: Consider the compound COc1cc(NC(=O)Nc2cccc(Cl)c2)c(OC)cc1NC(=O)CN1CCCCC1 . State its measured slope.
Result block: 0.00392

Query block: Consider the compound O=C(O)CC1=C(O)C(=O)N(c2ccccc2)C1c1ccccc1 (stereo not drawn) . State its measured slope.
Result block: 0.00537

Query block: Consider the compound O=C(OCC(=O)N1CCC(Cc2ccccc2)CC1)c1ccc[nH]c1=O . State its measured slope.
Result block: 0.00527

Query block: Consider the compound CCOC(=O)c1nnn(CC(=O)Nc2cccc(F)c2)c1C(=O)OCC . State its measured slope.
Result block: 0.00821

Query block: Consider the compound O=C(Nc1ccccc1N1CCN(c2ccc(F)cc2)CC1)c1ccccc1 . State its measured slope.
Result block: 0.00515

Query block: Consider the compound Cc1cccc(NC(=O)CCN2CCN(C/C=C/c3ccccc3)CC2)c1 . State its measured slope.
Result block: 0.00628

Query block: Consider the compound Cc1cc(C)c2c(n1)nn1c(N3CCOCC3)cc(C)nc21 . State its measured slope.
Result block: 0.00599

Query block: Consider the compound Cc1cc(O)c(-c2cc(C(=O)Nc3ccc(S(=O)(=O)N4CCOCC4)cc3)[nH]n2)cc1C . State its measured slope.
Result block: 0.00629

Query block: Consider the compound CCOC(=O)c1ccc(NC(=O)COc2ccc(-n3cnnn3)cc2)cc1 . State its measured slope.
Result block: 0.00538

Query block: Consider the compound Cc1ccc(C)c(/C(O)=C2\C(=O)C(=O)N(CCCN3CCOCC3)C2c2cccnc2)c1 (stereo not drawn) . State its measured slope.
Result block: 0.00619

Query block: Consider the compound Cc1cc(Nc2ccccc2N2CCOCC2)n2ncnc2n1 . State its measured slope.
Result block: 0.00567

Query block: Consider the compound Cc1cccc(C(=O)N2CCC(n3nnc4cc(F)ccc43)CC2)c1 . State its measured slope.
Result block: 0.0067

Query block: Consider the compound O=C(CCC(=O)N1CCc2ccccc2C1)N1CCN(S(=O)(=O)c2ccccc2)CC1 . State its measured slope.
Result block: 0.00506

Query block: Consider the compound O=C(C1CCCCC1)N1CCC(c2nc3c(nnn3Cc3c(F)cccc3Cl)c(=O)[nH]2)CC1 . State its measured slope.
Result block: 0.00666

Query block: Consider the compound COc1cccc(-c2nnc(NC(C)=O)o2)c1 . State its measured slope.
Result block: 0.00477

Query block: Consider the compound CCOC(=O)c1c(C)[nH]c(C(=O)Cn2c(=O)oc3ccccc32)c1C . State its measured slope.
Result block: 0.00653

Query block: Consider the compound COc1ccccc1NC(=O)CSC1CC(=O)N(c2ccc3c(c2)OCO3)C1=O (stereo not drawn) . State its measured slope.
Result block: 0.00433

Query block: Consider the compound CCOc1ccc(-n2cc(C(=O)N3CCN(C)CC3)c3cc(OC)c(OC)cc3c2=O)cc1 . State its measured slope.
Result block: 0.007

Query block: Consider the compound N#Cc1c(NC(=O)c2ccc(Br)o2)n(-c2ccccc2)c2nc3ccccc3nc12 . State its measured slope.
Result block: 0.0121

Query block: Consider the compound O=C(CSc1nc(-c2ccccc2)cs1)NC(=O)NCc1ccco1 . State its measured slope.
Result block: 0.00572

Query block: Consider the compound CCOC(=O)N1CCN(C(=O)CSc2nnc(Cc3ccccc3)o2)CC1 . State its measured slope.
Result block: 0.00629

Query block: Consider the compound COc1ccc(C(=O)NCCSc2ccccn2)cc1 . State its measured slope.
Result block: 0.00549

Query block: Consider the compound COCc1[nH]nc2c1C(c1cc(OC)c(O)c(OC)c1)C(C#N)=C(N)O2 (stereo not drawn) . State its measured slope.
Result block: 0.0049

Query block: Consider the compound C=CCSC1=C(C#N)C(c2ccccc2C)CC(=O)N1 (stereo not drawn) . State its measured slope.
Result block: 0.00492

Query block: Consider the compound CC(C)n1c(NCc2c[nH]c3ccccc23)nc2ccccc21 . State its measured slope.
Result block: 0.00272

Query block: Consider the compound CC1CCC(C(=O)NC(C(=O)NCCN2CCC(C)CC2)C(C)C)CC1 (stereo not drawn) . State its measured slope.
Result block: 0.00683

Query block: Consider the compound Cc1ccccc1-n1nnc2c(=O)oc3ccccc3c21 . State its measured slope.
Result block: 0.00409

Query block: Consider the compound COc1cc(OC)cc(OCC(O)Cn2cnc(-c3ccccc3)c2)c1 (stereo not drawn) . State its measured slope.
Result block: 0.00517

Query block: Consider the compound COc1cccc(C(=O)Nc2ncc3c(n2)CC(C)CC3=O)c1 (stereo not drawn) . State its measured slope.
Result block: 0.00534

Query block: Consider the compound CC(=O)N1CCN(Cc2ccc(Br)s2)CC1 . State its measured slope.
Result block: 0.00639

Query block: Consider the compound CCCCNC(=O)CSc1nc2ccc(N3CCOCC3)cc2c(=O)n1CCc1ccccc1 . State its measured slope.
Result block: 0.00671

Query block: Consider the compound CN(C)c1nc(Oc2ccc(=O)n(C)n2)nc(N2CCOCC2)n1 . State its measured slope.
Result block: 0.00286
